target: Human factor D (Homo sapiens (Human)); test: Human Factor D Assay; conditions: Human factor D purified from human serum, 80 nM; substrate Z-L-Lys-SBzl with DTNB; assay of Example 8
READOUT TYPE: IC50

COMPOUND	READOUT TYPE	OBSERVED RESULT
CC(=O)c1cn(CC(=O)N2C[C@H](F)C[C@H]2C(=O)NCc2cccc(Cl)c2F)c2cc(OCP(=O)(OCOC(=O)C(C)(C)C)OCOC(=O)C(C)(C)C)ccc12 [Compound 21]	IC50	< 1 µM

Would you kindly share the measured IC50 for CC(=O)c1cn(CC(=O)N2C[C@H](F)C[C@H]2C(=O)NCc2cccc(Cl)c2F)c2ccc(OCP(=O)(O)O)cc12 [Compound 11] ?
< 1 µM

Now the same for CC(=O)c1cn(CC(=O)N2C[C@H](F)C[C@H]2C(=O)Nc2cccc(OC(F)(F)F)c2F)c2cc(OCP(=O)(O)O)ccc12 [Compound 27]
< 1 µM

----------
target: Human factor D (Homo sapiens (Human), UniProt P00746); experiment: Human Factor D Assay; conditions: Human factor D purified from human serum, 80 nM; substrate Z-L-Lys-SBzl with DTNB; assay of Example 8
Sequence (P00746 26-253): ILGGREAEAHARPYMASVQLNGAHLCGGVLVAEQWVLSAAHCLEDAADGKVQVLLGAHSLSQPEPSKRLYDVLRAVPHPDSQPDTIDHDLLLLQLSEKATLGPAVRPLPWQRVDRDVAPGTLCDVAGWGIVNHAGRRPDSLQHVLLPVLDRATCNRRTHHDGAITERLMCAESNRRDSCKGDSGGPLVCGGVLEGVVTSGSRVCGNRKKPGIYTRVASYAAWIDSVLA
pIC50: −log10 of the molar value.
READOUT TYPE: pIC50

Illustrative cases are given below, each with its answer.
CC(=O)c1cn(CC(=O)N2C[C@H](F)C[C@H]2C(=O)NCc2cccc(Cl)c2F)c2cc(OCP(=O)(O)OCOC(=O)OC(C)C)ccc12 > 6.00
CC(=O)c1cn(CC(=O)N2C[C@H](F)C[C@H]2CNS(=O)(=O)c2cccc(Cl)c2F)c2cc(OCP(=O)(O)O)ccc12 > 6.00
CCCCCCCCCCCCCCCCOCCCOP(=O)(O)COc1ccc2c(C(C)=O)cn(CC(=O)N3C[C@H](F)C[C@H]3C(=O)NCc3cccc(Cl)c3F)c2c1 > 6.00
CC(=O)c1cn(CC(=O)N2C[C@H](F)C[C@H]2C(=O)NCc2cccc(Cl)c2F)c2ccc(OS(=O)(=O)C(F)(F)F)cc12 > 6.00
CC(=O)c1cn(CC(=O)N2C[C@H](F)C[C@H]2C(=O)NCc2cccc(Cl)c2F)c2cc(OCS(N)(=O)=O)ccc12 > 6.00
CC(=O)c1cn(CC(=O)N2C[C@H](F)C[C@H]2C(=O)Nc2cccc(-c3ccccc3Cl)c2F)c2ccc(Oc3ncc(C)cn3)cc12 > 6.00
CCOP(=O)(COc1ccc2c(C(C)=O)cn(CC(=O)N3C[C@H](F)C[C@H]3C(=O)N[C@H](C)c3cccc(Cl)c3F)c2c1)OCC > 6.00
CC(=O)c1cn(CC(=O)N2C[C@H](F)C[C@H]2C(=O)Nc2ccc(OC(F)(F)F)c(F)c2)c2cc(OCP(=O)(O)O)ccc12 > 6.00

Reported pIC50 for Human factor D (Homo sapiens (Human), UniProt P00746), given CC(=O)c1cn(CC(=O)N2C[C@H](F)C[C@H]2C(=O)NCc2cccc(Cl)c2F)c2cc(Oc3ncccn3)ccc12 ?
> 6.00

Now consider CC(=O)c1cn(CC(=O)N2C[C@H](F)C[C@H]2C(=O)Nc2cccc(-c3ccccc3Cl)c2F)c2ccc(Oc3ncc(Br)cn3)cc12 .
> 6.00

Here is the next compound: CC(=O)c1cn(CC(=O)N2C[C@H](F)C[C@H]2C(=O)Nc2cccc(Oc3ccccc3)c2)c2cc(OCP(=O)(O)O)ccc12
> 6.00

And for CC(=O)c1cn(CC(=O)N2C[C@H](F)C[C@H]2C(=O)Nc2cccc(-c3ccccc3Cl)c2F)c2cc(Oc3ncccn3)ccc12 ?
> 6.00
